B1: TRIM15 (parent)
chain: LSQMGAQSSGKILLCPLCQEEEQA

# Variants of: B1
# Assay Procedure: protein stability index of a GFP-peptide fusion (GPS, HEK-293T) (PSI 1-6); higher = more stable;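 also: lentivirally expressed fusions sorted by FACS into six bins by GFP to DsRed ratio, PSI derived from sequencing read proportions per bin multiplied by bin number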
# Test Conditions: c terminus: a fixed tail appended
Quantity Kind: protein stability index

Input: Could you tell me which protein stability index is on file for P16M ?
Output: 3.98

Input: Could you tell me which protein stability index is on file for G10D ?
Output: 4.3

Input: Could you tell me which protein stability index is on file for Q7K ?
Output: 3.47

Input: Could you tell me which protein stability index is on file for Q19A ?
Output: 4.35

Input: Could you tell me which protein stability index is on file for A6C ?
Output: 3.37

Input: Could you tell me which protein stability index is on file for E20S ?
Output: 2.64

Input: Could you tell me which protein stability index is on file for G5A ?
Output: 3.49

Input: Could you tell me which protein stability index is on file for S8E ?
Output: 3.82

Input: Could you tell me which protein stability index is on file for A6M ?
Output: 3.3
